Where these numbers come from: ChEMBL document CHEMBL5137017

assay: Oral bioavailability in Sprague-Dawley rat at 20 mg/kg using crystalline form of sample; assay type: ADME, organism-based; details: in vivo
property: bioavailability (%)
Answers are plain numbers, in %.

For the compound shown here, `C[C@H]1OC(=O)N(c2nc(-c3cnc(N)nc3C(F)(F)F)cc(N3CCOCC3)n2)[C@H]1CO` , give the reported bioavailability.
20

====

test: Brain to blood ratio in OF1 mouse at 1 mg/kg, iv measured at 1 hr post dose by LC-MS/MS analysis; assay type: ADME, organism-based; settings: brain and blood, read-out: BBR
true (1) means recorded Kp at 1 h is 0.2 or above; false (0) means it is below 0.2.

Worked examples, 5 molecules total:
Nc1cc(C(F)(F)F)c(-c2cc(N3CCOC[C@H]3CO)nc(N3CCOCC3)n2)cn1 : true (1)
C[C@H]1COC(=O)N1c1nc(-c2cnc(N)nc2C(F)(F)F)cc(N2CCOCC2)n1 : true (1)
COc1ccc2c(c1)OCCN2c1cc(-c2cnc(N)nc2)nc(N2CCOCC2)n1 : true (1)
Nc1cc(C(F)(F)F)c(-c2cc(N3CCOCC3)nc(N3CCOCC3)n2)cn1 [BUPARLISIB] : true (1)
Nc1cc(C(F)(F)F)c(-c2cc(NC(CO)Cc3ccccc3)nc(N3CCOCC3)n2)cn1 (racemic) : true (1)

Please tell me: is the molecule `C[C@H]1OC(=O)N(c2nc(-c3cnc(N)nc3C(F)(F)F)cc(N3CCOCC3)n2)[C@H]1CO` at or over 0.2 in terms of Kp at 1 h?
false (0)

====

experiment: AUC(0 to Tlast) in athymic nude mouse xenografted with rat Rat1 cells expressing myr-p110alpha at 10 mg/kg, po measured after 8 days by LC-MS/MS analysis; assay type: ADME, organism-based; set-up: time 8 day, dose 10 mg/kg, route po; conditions: in vivo
property: AUC(0-t) at 192 h (µM·h)
Numbers only, in µM·h.

If you can, please state the reported AUC(0-t) at 192 h value of `C[C@H]1OC(=O)N(c2nc(-c3cnc(N)nc3C(F)(F)F)cc(N3CCOCC3)n2)[C@H]1CO` .
16

====

assay: Clast in athymic nude mouse xenografted with rat Rat1 cells expressing myr-p110alpha at 10 mg/kg, po measured after 8 days by LC-MS/MS analysis; assay type: ADME, organism-based; conditions: in vivo, time 8 day, read-out: Clast
property: concentration at 192 h (nM)
Answers are plain numbers, in nM.

# input compound: `C[C@H]1OC(=O)N(c2nc(-c3cnc(N)nc3C(F)(F)F)cc(N3CCOCC3)n2)[C@H]1CO` ; wanted: its concentration at 192 h
140

====

assay: Plasma protein binding in OF1 mouse plasma at 10 mg/kg,po or 3 mg/kg,iv measured after 4 hrs by rapid equilibrium dialysis method; assay type: ADME, organism-based; conditions: read-out: PPB (converted)
property: fraction unbound at 4 h
Give bare numbers.

Query: fraction unbound at 4 h; subject: `C[C@H]1OC(=O)N(c2nc(-c3cnc(N)nc3C(F)(F)F)cc(N3CCOCC3)n2)[C@H]1CO`
0.24

====

experiment: Cmax in Beagle dog at 6 mg/kg, po measured upto 24 hrs using crystalline form of sample by LC-MS/MS analysis; assay type: ADME, organism-based, Canis lupus familiaris; set-up: dose 6 mg/kg, time < 24 hrs, route po; conditions: in vivo
property: Cmax (nM)
Numbers only, in nM.

Please report the recorded Cmax for `C[C@H]1OC(=O)N(c2nc(-c3cnc(N)nc3C(F)(F)F)cc(N3CCOCC3)n2)[C@H]1CO` .
1240

====

test: AUC(0 to Tlast) in athymic nude mouse xenografted with rat Rat1 cells expressing myr-p110alpha at 3 mg/kg, po measured after 8 days by LC-MS/MS analysis; assay type: ADME, organism-based; design: time 8 day, dose 3 mg/kg, route po; settings: in vivo
property: AUC(0-t) at 192 h (µM·h)
Answers are plain numbers, in µM·h.

Reported AUC(0-t) at 192 h, compound `C[C@H]1OC(=O)N(c2nc(-c3cnc(N)nc3C(F)(F)F)cc(N3CCOCC3)n2)[C@H]1CO` : ____
5.5

====

test: Inhibition of PI3K PTEN mutant in human BT-549 cells assessed as reduction in phosphorylation of AKT at Ser473 residue by Western blot analysis; type: cell-based
property: IC50
Kindly report the value followed by its unit.

Could you share which IC50 value was measured for `C[C@H]1OC(=O)N(c2nc(-c3cnc(N)nc3C(F)(F)F)cc(N3CCOCC3)n2)[C@H]1CO` ?
99 nM

====

assay: cells; settings: Rattus norvegicus, Rat1, 1 h
property: IC50 (nM)
Answers are plain numbers, in nM.

C[C@H](O)[C@@H]1COC(=O)N1c1nc(-c2cnc(N)nc2C(F)(F)F)cc(N2CCOCC2)n1 : 83
N#Cc1cc(N)ncc1-c1cc(N2CCOC(CCO)C2)nc(N2CCOCC2)n1 (racemic) : 2520
C[C@H]1[C@@H](CO)OC(=O)N1c1nc(-c2cnc(N)nc2C(F)(F)F)cc(N2CCOCC2)n1 : 30
CNC(=O)N(C)c1cc(-c2cnc(N)cc2C(F)(F)F)nc(N2CCOCC2)n1 : 1300
Nc1ncc(-c2cc(N3CCOCC3)nc(N3C(=O)O[C@@H]4COC[C@@H]43)n2)c(C(F)(F)F)n1 : 61
Nc1cc(C(F)(F)F)c(-c2cc(N3CCCC3=O)nc(N3CCOCC3)n2)cn1 : 267
Cn1c(=O)n(-c2ccc(C(C)(C)C#N)cc2)c2c3cc(-c4cnc5ccccc5c4)ccc3ncc21 [DACTOLISIB] : 14

The record that follows has no IC50 shown yet.
So what does the record say about IC50 for `Nc1ncc(-c2cc(N3CCOCC3)nc(N3C[C@@H](CO)OC3=O)n2)c(C(F)(F)F)n1` ?
101

====

experiment: Apparent permeability across basolateral to apical side in human Caco-2 cells at 10 uM measured after 120 mins by LC-MS/MS analysis; assay type: ADME, cell-based
property: Papp B→A at 2 h, 10 µM (nm/s)
Numbers only, in nm/s.

Fill blank: measured Papp B→A at 2 h, 10 µM of the compound `C[C@H]1OC(=O)N(c2nc(-c3cnc(N)nc3C(F)(F)F)cc(N3CCOCC3)n2)[C@H]1CO` is ____.
190

====

test: Oral bioavailability in Sprague-Dawley rat at 3 mg/kg measured for 0.25 to 24 hrs by LC-MS/MS analysis; format: ADME, organism-based; settings: in vivo, time 0.25-24 hrs
property: bioavailability

C[C@H]1OC(=O)N(c2nc(-c3cnc(N)nc3C(F)(F)F)cc(N3CCOCC3)n2)[C@H]1CO : 97%
C[C@@H]1OC(=O)N(c2nc(-c3cnc(N)nc3C(F)(F)F)cc(N3CCOCC3)n2)[C@H]1CO : 23%

What bioavailability value was documented for this compound, `C[C@H]1COC(=O)N1c1nc(-c2cnc(N)nc2C(F)(F)F)cc(N2CCOCC2)n1` ?
46%

====

biological target: Tubulin (Homo sapiens) (UniProt P68371+Q9H4B7+P0DPH7+P68366+Q13509+Q71U36+P04350+Q3ZCM7+P07437+P68363+Q9BQE3+Q6PEY2+Q13885+Q9BVA1+Q9BUF5); assay: Binding affinity to tubulin in human A2058 cells assessed as condensed DNA score at 5 uM measured after 24 hrs by DiffQuick staining based microscopic analysis; assay type: cell-based
property: Activity

Worked examples, 5 compounds total:
Cn1c(=O)n(-c2ccc(C(C)(C)C#N)cc2)c2c3cc(-c4cnc5ccccc5c4)ccc3ncc21 : < 2%
CS(=O)(=O)N1CCN(Cc2cc3nc(-c4cccc5[nH]ncc45)nc(N4CCOCC4)c3s2)CC1 : < 2%
Nc1ncc(-c2cc(N3CCOCC3)nc(N3CCOCC3)n2)c(=O)[nH]1 : < 2%
Nc1cc(C(F)(F)F)c(-c2cc(N3CCS(=O)(=O)CC3)nc(N3CCOCC3)n2)cn1 : < 2%
Nc1cc(C(F)(F)F)c(-c2cc(N3CCOCC3)nc(N3CCOCC3)n2)cn1 : > 12%

Report Activity for each item below.
1. Nc1cc(C(F)(F)F)c(-c2cc(N3CCCCC3=O)nc(N3CCOCC3)n2)cn1
2. COc1ccc2c(c1)OCCN2c1cc(-c2cnc(N)nc2)nc(N2CCOCC2)n1
3. Nc1cc(C(F)(F)F)c(-c2cc(N3CCN(c4ccccc4)C3=O)nc(N3CCOCC3)n2)cn1
4. Nc1cc(C(F)(F)F)c(-c2cc(N3CCOCC3)nc(N3CCOCC3)c2)cn1

1. < 2%
2. 6%
3. < 2%
4. > 12%

Name the reported Activity value associated with the compound `Nc1ncc(-c2cc(N3CCOCC3)nc(N3CCOCC3)n2)c(C(F)(F)F)n1`
> 12%

====

assay: Tmax in Beagle dog at 6 mg/kg, po measured upto 24 hrs using crystalline form of sample by LC-MS/MS analysis; type: ADME, organism-based, Canis lupus familiaris; details: in vivo
property: Tmax (h)
Give bare numbers, in h.

Need Tmax, item `C[C@H]1OC(=O)N(c2nc(-c3cnc(N)nc3C(F)(F)F)cc(N3CCOCC3)n2)[C@H]1CO`
4
